# system_tested: HLA-A*32:01
# recorded_conditions: chains peptide; modification not given

- binder: "RQWFFDLPL [SEQ ID NO: 310 serotype 3]"
  IC50 [nM]: 7
